TARGET SYSTEM: T1, Mouse GCGR (mouse, UniProt Q61606 27-485)
T1 construct: whole, on cells; also called mouse glucagon receptor
T1 sequence (Q61606 27-485): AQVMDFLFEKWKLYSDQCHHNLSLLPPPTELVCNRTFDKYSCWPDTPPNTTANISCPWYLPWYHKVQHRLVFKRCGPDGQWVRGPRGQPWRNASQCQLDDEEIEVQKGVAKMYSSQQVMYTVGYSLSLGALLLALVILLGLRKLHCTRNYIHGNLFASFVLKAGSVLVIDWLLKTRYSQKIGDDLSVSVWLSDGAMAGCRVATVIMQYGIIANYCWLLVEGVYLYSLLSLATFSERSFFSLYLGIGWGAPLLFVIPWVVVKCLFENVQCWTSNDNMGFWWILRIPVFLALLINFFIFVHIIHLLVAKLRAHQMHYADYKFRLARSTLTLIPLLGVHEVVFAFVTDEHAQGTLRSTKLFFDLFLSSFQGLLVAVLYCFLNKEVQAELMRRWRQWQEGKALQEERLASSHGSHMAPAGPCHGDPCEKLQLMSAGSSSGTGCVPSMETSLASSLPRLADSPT
METHOD DESCRIPTION: cell ELISA on fixed CHO cells overexpressing GCGR
pEC50: −log10 of the molar value.
Item-by-item account of pEC50
VALUE KIND: pEC50

* ch1817 (antibody, human IgG4 S228P, kappa, F234A L235A, V domains shown, IgG4-AA / kappa chimeric antibody) VH: EVQLVESGGDLVQPGRSMKLSCAASGFTFSNYYMAWVRQAPTKGLEWVASISTGGVNTYYRDSVKGRFTISRDNAKNNLYLQMDSLRSEETATYYCARHTTADYFYGIYFALDAWGQGTSVTVSS VL: QFTLTQPKSVSGSLRSTITIPCERSSGDIGDSYVNWYQQHLGRPPLNVIYADVQRPSEVSDRFSGSIDSSSNSASLTITNLQMDDEADYFCQSYDTNIDIIFGGGTKLTVLR | 9.79
* ch1810 (antibody, human IgG4 S228P, kappa, F234A L235A, V domains shown) VH: QVQLQQSGTELARPGTSVTLSCKASGYTFTNYAISWVKQRTGQGLEWIGEIYPTSGNTYYNEKFKGKATLTADRSSKTMYMELRSLTSVDSAVYFCASGVITTVVSTDYFDYWGQGSPLTVSS VL: DIQMTQIPSSLSVSLGDRVTISCRASLDISNYLNWYQLKPDGTVKLLIYYTSTLHSGVSSRFSGSGSGTEYSLTISNLEQEDIATYFCQQGNMVPYTFGGGTKLEIKR | 9.36
* ch1808 (antibody, human IgG4 S228P, kappa, F234A L235A, V domains shown, IgG4-AA / kappa chimeric antibody) VH: QVQLQQSGAELARPGASVKLSCKASGDTFTTNGISWVKQRIGQGLEWIGEIYPRSGNTYYNENFKGKATLTADKSSTTAYMELRRLTSEDSAVYFCARSITSVIGADYFDYWGQGTTLTVSS VL: DIQMTQTTSSLSASLGDRVTISCRASQDISNYLNWYQKKPDGTVKLLIYYSSTLHSGVPSRFSGSGSGTDYSLTISNLEQEDIATYFCQQGNTFPWTFGGGTKLEIKR | 8.99
